Taken from patent US12448383B2.

# assayDetails: Stability in pH2 buffered solution
# Assay type: physicochemical
# conditionSet: pH2 phosphate buffer, 40° C., 24 hr
resultType: Stability at pH2, 24 hr (% AN)
Numbers only, in % AN.

// below: answered molecules
Req: Using the record for COC(=O)OC[C@H]1O[C@@](C#N)(c2ccc3c(N)ncnn23)[C@H](OC(C)=O)[C@@H]1OC(C)=O [Compound 128] , state its measured Stability at pH2, 24 hr.
Resp: 89.3

Req: Using the record for CCOC(=O)OC[C@H]1O[C@@](C#N)(c2ccc3c(N)ncnn23)[C@H](OC(C)=O)[C@@H]1OC(C)=O [Compound 129] , state its measured Stability at pH2, 24 hr.
Resp: 89.4

Req: Using the record for CC(C)OC(=O)OC[C@H]1O[C@@](C#N)(c2ccc3c(N)ncnn23)[C@H](OC(=O)C(C)C)[C@@H]1OC(=O)C(C)C [Compound 59] , state its measured Stability at pH2, 24 hr.
Resp: 97.9

Consider now this further molecule.
Req: Using the record for CC(C)OC(=O)OC[C@H]1O[C@@](C#N)(c2ccc3c(N)ncnn23)[C@H](O)[C@@H]1O [Compound 4] , state its measured Stability at pH2, 24 hr.
Resp: 98.3

====

# assayDetails: physchem
Note to self: use class 1 only for logD readings below 2; a reading exactly at 2 still gets class 0.

Req: Please indicate whether the reported logD of CCCCCCCCCCCCCCCCCCOC(=O)OC[C@H]1O[C@@](C#N)(c2ccc3c(N)ncnn23)[C@H](O)[C@@H]1O is strictly below 2.
Resp: class 0

Next:
Req: Please indicate whether the reported logD of N#C[C@@]1(c2ccc3c(N)ncnn23)O[C@H](COC(=O)OCC2CC2)[C@@H](O)[C@H]1O is strictly below 2.
Resp: class 1

Req: Please indicate whether the reported logD of COc1ccc(OC(=O)OC[C@H]2O[C@@](C#N)(c3ccc4c(N)ncnn34)[C@H](O)[C@@H]2O)cc1 is strictly below 2.
Resp: class 1

Req: Please indicate whether the reported logD of C[C@@H](OC(=O)OC[C@H]1O[C@@](C#N)(c2ccc3c(N)ncnn23)[C@H](O)[C@@H]1O)[C@@H](C(=O)OCC1CCCC1)N(C)C is strictly below 2.
Resp: class 0

Req: Please indicate whether the reported logD of N#C[C@@]1(c2ccc3c(N)ncnn23)O[C@H](COC(=O)OC23CC4CC(CC(C4)C2)C3)[C@@H](O)[C@H]1O is strictly below 2.
Resp: class 0

Req: Please indicate whether the reported logD of C[C@@H](OC(=O)OC[C@H]1O[C@@](C#N)(c2ccc3c(N)ncnn23)[C@H](O)[C@@H]1O)[C@@H](C(=O)OCC(C)(C)C)N(C)C is strictly below 2.
Resp: class 0

Req: Please indicate whether the reported logD of CC(C)OC(=O)[C@H](CCOC(=O)OC[C@H]1O[C@@](C#N)(c2ccc3c(N)ncnn23)[C@H](O)[C@@H]1O)N(C)C is strictly below 2.
Resp: class 1

Req: Please indicate whether the reported logD of N#C[C@@]1(c2ccc3c(N)ncnn23)O[C@H](COC(=O)OCC2(c3ccccc3)CC2)[C@@H](O)[C@H]1O is strictly below 2.
Resp: class 0

Req: Please indicate whether the reported logD of CC(C)OC(=O)[C@H](COC(=O)OC[C@H]1O[C@@](C#N)(c2ccc3c(N)ncnn23)[C@H](O)[C@@H]1O)N(C)C is strictly below 2.
Resp: class 1

Req: Please indicate whether the reported logD of N#C[C@@]1(c2ccc3c(N)ncnn23)O[C@H](COC(=O)OCC2(C(F)(F)F)CC2)[C@@H](O)[C@H]1O is strictly below 2.
Resp: class 1

Req: Please indicate whether the reported logD of N#C[C@@]1(c2ccc3c(N)ncnn23)O[C@H](COC(=O)OCCCCC(=O)O)[C@@H](O)[C@H]1O is strictly below 2.
Resp: class 1

Req: Please indicate whether the reported logD of N#C[C@@]1(c2ccc3c(N)ncnn23)O[C@H](COC(=O)OCCCCCC(=O)O)[C@@H](O)[C@H]1O is strictly below 2.
Resp: class 1

Req: Please indicate whether the reported logD of N#CC12CC(COC(=O)OC[C@H]3O[C@@](C#N)(c4ccc5c(N)ncnn45)[C@H](O)[C@@H]3O)(C1)C2 is strictly below 2.
Resp: class 1

Req: Please indicate whether the reported logD of N#C[C@@]1(c2ccc3c(N)ncnn23)O[C@H](COC(=O)OCCCCCCC(=O)O)[C@@H](O)[C@H]1O is strictly below 2.
Resp: class 1

Req: Please indicate whether the reported logD of C[C@@H](OC(=O)OC[C@H]1O[C@@](C#N)(c2ccc3c(N)ncnn23)[C@H](O)[C@@H]1O)[C@@H](C(=O)OC1CCCC1)N(C)C is strictly below 2.
Resp: class 0

Req: Please indicate whether the reported logD of COC(=O)Nc1ncnn2c([C@]3(C#N)O[C@H](COC(=O)OCC(C)(C)C)[C@@H](OC(=O)OC)[C@H]3OC(=O)OC)ccc12 is strictly below 2.
Resp: class 0

Req: Please indicate whether the reported logD of N#C[C@@]1(c2ccc3c(N)ncnn23)O[C@H](COC(=O)OCCCC(=O)O)[C@@H](O)[C@H]1O is strictly below 2.
Resp: class 1

Req: Please indicate whether the reported logD of CC(C)OC(=O)[C@H]([C@@H](C)OC(=O)OC[C@H]1O[C@@](C#N)(c2ccc3c(N)ncnn23)[C@H](O)[C@@H]1O)N(C)C is strictly below 2.
Resp: class 1

Req: Please indicate whether the reported logD of COC1O[C@H]2[C@@H](O1)[C@](C#N)(c1ccc3c(N)ncnn13)O[C@@H]2COC(=O)OC(C)C (some centres unmarked) is strictly below 2.
Resp: class 0

Req: Please indicate whether the reported logD of CC1=CCC(C(C)(C)OC(=O)OC[C@H]2O[C@@](C#N)(c3ccc4c(N)ncnn34)[C@H](O)[C@@H]2O)CC1 (some centres unmarked) is strictly below 2.
Resp: class 0

Req: Please indicate whether the reported logD of CC1(COC(=O)OC[C@H]2O[C@@](C#N)(c3ccc4c(N)ncnn34)[C@H](O)[C@@H]2O)CCC1 is strictly below 2.
Resp: class 1

Req: Please indicate whether the reported logD of N#C[C@@]1(c2ccc3c(N)ncnn23)O[C@H](COC(=O)OCC2CC(F)(F)C2)[C@@H](O)[C@H]1O is strictly below 2.
Resp: class 1

====

# Tested on: Caco-2 cells (clone C2BBe1)
# assayDetails: CACO-2 permeability
# Format: in vitro ADME
# Set-up: unit not given here
# conditionSet: basolateral to apical
Can you tell me DM Caco2 B to A for the items I'm about to list?
Give bare numbers.

Req: Using the record for CC(C)OC(=O)OC[C@H]1O[C@@](C#N)(c2ccc3c(NC(=O)OC(C)(C)C)ncnn23)[C@H](OC(=O)OC(C)C)[C@@H]1OC(=O)OC(C)C , state its measured DM Caco2 B to A.
Resp: 0.95

Req: Using the record for CC1(OC(=O)OC[C@H]2O[C@@](C#N)(c3ccc4c(N)ncnn34)[C@H](O)[C@@H]2O)CCCCC1 , state its measured DM Caco2 B to A.
Resp: 11.38

Req: Using the record for N#C[C@@]1(c2ccc3c(N)ncnn23)O[C@H](COC(=O)OC2CCCCCCC2)[C@@H](O)[C@H]1O , state its measured DM Caco2 B to A.
Resp: 21.7

Req: Using the record for C[C@H](OC(=O)OC[C@H]1O[C@@](C#N)(c2ccc3c(N)ncnn23)[C@H](O)[C@@H]1O)c1ccccc1 , state its measured DM Caco2 B to A.
Resp: 12.82

Req: Using the record for CC(C)OC(=O)Nc1ncnn2c([C@]3(C#N)O[C@H](COC(=O)OC(C)C)[C@@H](O)[C@H]3O)ccc12 , state its measured DM Caco2 B to A.
Resp: 11.37

Req: Using the record for CC(C)(OC(=O)OC[C@H]1O[C@@](C#N)(c2ccc3c(N)ncnn23)[C@H](O)[C@@H]1O)c1ccccn1 , state its measured DM Caco2 B to A.
Resp: 5.65

Consider now this further compound.
Req: Using the record for CC(C)(C)OC(=O)OC[C@H]1O[C@@](C#N)(c2ccc3c(N)ncnn23)[C@H](O)[C@@H]1O , state its measured DM Caco2 B to A.
Resp: 10.66

====

# System: Respiratory syncytial virus recombinant with luciferase (RSV-Luc5) in HEp-2 cells
# assayDetails: microbe, parasite or virus in culture
# Assay type: cell-based
# conditionSet: human respiratory syncytial virus, HEp-2, 72 h, read-out: RSV Hep2 EC50
Can you tell me pEC50 for the items I'm about to list?
Numbers only, as −log10 of the molar value.

// below: answered compounds
Req: Using the record for CC(C)OC(=O)OC[C@H]1O[C@@](C#N)(c2ccc3c(NC(=O)C(C)C)ncnn23)[C@H](OC(=O)C(C)C)[C@@H]1OC(=O)C(C)C , state its measured pEC50.
Resp: 5.99

Req: Using the record for N#C[C@@]1(c2ccc3c(N)ncnn23)O[C@H](COC(=O)OCc2ncccn2)[C@@H](O)[C@H]1O , state its measured pEC50.
Resp: 5.44

Here are 3 compounds. What values of pEC50 were reported for them?
1. CC(C)OC(=O)OC[C@H]1O[C@@](C#N)(c2ccc3c(N)ncnn23)[C@H](OC(=O)C(C)C)[C@@H]1OC(=O)C(C)C
2. CCC(C)(C)OC(=O)OC[C@H]1O[C@@](C#N)(c2ccc3c(N)ncnn23)[C@H](O)[C@@H]1O
3. N#C[C@@]1(c2ccc3c(N)ncnn23)O[C@H](COC(=O)OCC2CCC2)[C@@H](O)[C@H]1O

Resp:
1. 6.10
2. 5.76
3. 7.01

Here are 2 compounds. What values of pEC50 were reported for them?
1. COC(C)(C)COC(=O)OC[C@H]1O[C@@](C#N)(c2ccc3c(N)ncnn23)[C@H](O)[C@@H]1O
2. CC(C)COC(=O)OC[C@H]1O[C@@](C#N)(c2ccc3c(N)ncnn23)[C@H](OC(=O)C(C)C)[C@@H]1OC(=O)C(C)C

Resp:
1: 6.23; 2: 5.94
